Entry source: patent US8106155B2

experimentalSystem: BlaR-CTD receptor (Bacillus licheniformis, UniProt P12287)
Construct: uses the BlaR-CTD receptor coupled to gold beads
Sequence (P12287 354-601): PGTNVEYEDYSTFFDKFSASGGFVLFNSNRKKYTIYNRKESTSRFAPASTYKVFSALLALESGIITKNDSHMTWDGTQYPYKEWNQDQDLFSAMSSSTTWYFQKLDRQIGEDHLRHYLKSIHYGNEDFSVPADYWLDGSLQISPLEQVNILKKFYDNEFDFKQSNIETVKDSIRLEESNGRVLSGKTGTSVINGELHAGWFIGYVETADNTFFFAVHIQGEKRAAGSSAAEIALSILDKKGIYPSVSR
protocolDetails: 9-minute test: BlaR-CTD coupled to gold beads, membrane test device, milk
Assay type: binding
conditionParameters: test carried out in 9 minutes, 47° C.; positive when 1st band less intense than 2nd band
concentration detected in a sample of milk strictly less than 6 ppb = yes. Otherwise no.

# strict comparison: is reported concentration detected in a sample of milk < 6 ppb? input = CO/N=C(\C(=O)N[C@@H]1C(=O)N2C(C(=O)O)=C(CSC(=O)c3ccco3)CS[C@H]12)c1csc(N)n1
no

Would you kindly verify if concentration detected in a sample of milk of CC1(C)S[C@@H]2[C@H](NC(=O)Cc3ccccc3)C(=O)N2[C@H]1C(=O)O is strictly less than 6 ppb?
yes

Strictly below 6 ppb in concentration detected in a sample of milk? Cc1nnc(SCC2=C(C(=O)O)N3C(=O)[C@@H](NC(=O)Cn4cnnn4)[C@H]3SC2)s1
no

Lab note: concentration detected in a sample of milk threshold 6 ppb. Does this compound come in strictly under it? Cc1onc(-c2ccccc2Cl)c1C(=O)N[C@@H]1C(=O)N2[C@@H]1SC(C)(C)[C@@H]2C(=O)O
yes

For CC1(C)S[C@@H]2[C@H](NC(=O)[C@H](N)c3ccc(O)cc3)C(=O)N2[C@H]1C(=O)O , is the recorded concentration detected in a sample of milk below the cut-off of 6 ppb?
yes

Lab note: confirm whether the reported concentration detected in a sample of milk for this compound is below 6 ppb, equality not counting. compound: CC1(C)S[C@@H]2[C@H](NC(=O)[C@H](N)c3ccccc3)C(=O)N2[C@H]1C(=O)O
yes

* * *

experimentalSystem: BlaR-CTD receptor (Bacillus licheniformis)
Construct: uses the BlaR-CTD receptor coupled to gold beads
protocolDetails: 5-minute test: BlaR-CTD coupled to gold beads, membrane test device, milk
Type: binding
conditionParameters: test carried out in 5 minutes, 47° C.; positive when 1st band less intense than 2nd band
reportedMetric: concentration detected in a sample of milk (ppb)
Give the value, in units of ppb, as a plain number.

Recorded concentration detected in a sample of milk of Cc1nnc(SCC2=C(C(=O)O)N3C(=O)[C@@H](NC(=O)Cn4cnnn4)[C@H]3SC2)s1 [cefazoline] , please.
60

Suppose we examine the compound CC1(C)S[C@@H]2[C@H](NC(=O)[C@H](N)c3ccc(O)cc3)C(=O)N2[C@H]1C(=O)O [amoxicillin] ; what concentration detected in a sample of milk value has been reported?
4

So what does the record say about concentration detected in a sample of milk for CO/N=C(\C(=O)N[C@@H]1C(=O)N2C(C(=O)O)=C(CSC(=O)c3ccco3)CS[C@H]12)c1csc(N)n1 [ceftiofur] ?
100

What value of measured concentration detected in a sample of milk is listed for CCOc1ccc2ccccc2c1C(=O)N[C@@H]1C(=O)N2[C@@H]1SC(C)(C)[C@@H]2C(=O)O [nafcillin] ?
20

Quick one: concentration detected in a sample of milk of CC1(C)S[C@@H]2[C@H](NC(=O)Cc3ccccc3)C(=O)N2[C@H]1C(=O)O [penicillin G] ?
3

Which concentration detected in a sample of milk is listed for CC(=O)OCC1=C(C(=O)O)N2C(=O)[C@@H](NC(=O)CSc3ccncc3)[C@H]2SC1 [cephapirin] ?
16

// lookup concentration detected in a sample of milk for Cc1onc(-c2c(Cl)cccc2Cl)c1C(=O)N[C@@H]1C(=O)N2[C@@H]1SC(C)(C)[C@@H]2C(=O)O [dicloxacillin]
8

Which measured concentration detected in a sample of milk value corresponds to Cc1onc(-c2ccccc2)c1C(=O)N[C@@H]1C(=O)N2[C@@H]1SC(C)(C)[C@@H]2C(=O)O [oxacillin] ?
8

Recorded concentration detected in a sample of milk for CC1(C)S[C@@H]2[C@H](NC(=O)[C@H](N)c3ccccc3)C(=O)N2[C@H]1C(=O)O [ampicillin] , please?
4
